The reader will find reported IC50 values listed item by item below.
molecular target: recombinant human mPGES-1 (Homo sapiens (Human), UniProt O14684); assay: mPGES-1 enzyme assay (HTRF detection of PGE2); assay type: biochemical; conditions: recombinant human mPGES-1 microsomes, PGH2 2 μM, 60 seconds; read-out: mPGES-1 inhibitory effect IC50 in the enzyme assay
Sequence (O14684 whole entry): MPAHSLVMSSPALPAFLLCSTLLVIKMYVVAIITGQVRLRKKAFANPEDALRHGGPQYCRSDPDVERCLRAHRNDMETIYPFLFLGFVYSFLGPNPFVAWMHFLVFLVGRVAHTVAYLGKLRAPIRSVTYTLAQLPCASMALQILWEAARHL
Report as a plain number; the unit nM is understood.

Request: Can you share its IC50? I mean this compound: Cn1c(Nc2c(Cl)ccc(CNC(=O)C(C)(C)C(F)(F)F)c2Cl)nc2cc(C(=O)N[C@H]3CC[C@@H](C(F)(F)F)CC3)c(N3CCC(C(F)(F)F)CC3)cc21
Result: 3.1

Further cases:
Request: Can you share its IC50? I mean this compound: CN(c1cc2c(cc1C(=O)N[C@H]1CC[C@H](C(F)(F)F)CC1)nc(Nc1c(Cl)ccc(CNC(=O)C(C)(C)C)c1Cl)n2C)C1CC[S+]([O-])C1 (stereo partly drawn)
Result: 3

Request: Next compound: Cn1c(Nc2c(Cl)ccc(CNC(=O)C(C)(C)C(F)(F)F)c2Cl)nc2cc(C(=O)Nc3ccc(OC(F)(F)F)cc3)c(N3CCC(C(F)(F)F)CC3)cc21
Result: 2.2

Request: Next compound: Cn1c(Nc2c(Cl)ccc(CNC(=O)C(C)(C)C)c2Cl)nc2cc(C(=O)NCC3CC3)c(N3CCC(F)(F)C3)cc21
Result: 5

Request: Next compound: Cn1c(Nc2c(Cl)ccc(CNC(=O)C(C)(C)C)c2Cl)nc2cc(C(=O)N[C@H]3CC[C@H](C(F)(F)F)CC3)c(N3CC4COCC4C3)cc21 (stereo partly drawn)
Result: 2

Request: Next compound: Cn1c(Nc2c(Cl)ccc(CNC(=O)C(C)(C)C)c2Cl)nc2cc(C(=O)N[C@H]3CC[C@H](C(F)(F)F)CC3)c(N3CCCC(C(F)(F)F)C3)cc21 (stereo partly drawn)
Result: 2

====

biological target: recombinant human mPGES-1 (Homo sapiens (Human), UniProt O14684); experiment: mPGES-1 enzyme assay (HTRF detection of PGE2); type: biochemical; details: Table C comparison of selected benzimidazoles; read-out: Enzym IC50
MEASURED METRIC: IC50 (nM)
Report as a plain number; the unit nM is understood.

Request: Can you share its IC50? I mean this compound: Cn1c(Nc2cc(CNC(=O)C(C)(C)C)ccc2Cl)nc2cc(C(=O)Nc3ccc(Br)cc3)c(OCC(F)F)cc21 [[drawing 48] of WO 2010/100249, reference compound]
Result: 3

Request: Next compound: Cn1c(Nc2c(Cl)ccc(CNC(=O)C(C)(C)C)c2Cl)nc2cc(C(=O)Nc3ccc(F)c(Cl)c3)c(NCC(F)F)cc21
Result: 3

Request: Next compound: Cn1c(Nc2cc(CNC(=O)C(C)(C)C)ccc2Cl)nc2cc(C(=O)NCC3CC3)c(OCC(F)F)cc21 [[drawing 52] of WO 2010/100249, reference compound]
Result: 2

Request: Next compound: Cn1c(Nc2c(Cl)ccc(CNC(=O)C(C)(C)C)c2Cl)nc2cc(C(=O)NCC3CC3)c(N3CCC(F)(F)C3)cc21
Result: 5

# evaluate next
Request: Can you share its IC50? I mean this compound: CN(CC(F)F)c1cc2c(cc1C(=O)Nc1ccc(F)c(Cl)c1)nc(Nc1c(Cl)ccc(CNC(=O)C(C)(C)C)c1Cl)n2C
Result: 2
